Assay: Metabolic stability in human intestinal microsomes
Settings: both, pooled human intestinal microsomes, pH 7.4
Assign log10 of microsomal CLint at 1 μM to each entry below.
Units before log transform: µL/min/mg; reported quantity: microsomal CLint at 1 μM; transform: log10.

Example entries begin here.
{"molecule": "COC(=O)NCCCC(C)(C)C(=O)Oc1ccc(Oc2ccc(CN(Cc3ccccc3)c3cccc(NS(C)(=O)=O)c3C)cc2)cc1", "property-label": "log10 of microsomal CLint at 1 μM", "result-number": 3.00}
{"molecule": "C#CCC(CCCNC(=O)OC)C(=O)OCCOc1ccc(Oc2ccc(CN(Cc3ccccc3)c3cccc(NS(C)(=O)=O)c3C)cc2)cc1 (stereo not shown)", "property-label": "log10 of microsomal CLint at 1 μM", "result-number": 3.28}
{"molecule": "C#CCC(CCCNC(=O)OC)C(=O)Oc1ccc(Oc2ccc(CN(Cc3ccccc3)c3cccc(NS(C)(=O)=O)c3C)cc2)cc1 (stereo not shown)", "property-label": "log10 of microsomal CLint at 1 μM", "result-number": 3.23}

Consider the following items and state reported log10 of microsomal CLint at 1 μM for each.
1. COC(=O)NCCCC(C)C(=O)Oc1ccc(Oc2ccc(CN(Cc3ccccc3)c3cccc(NS(C)(=O)=O)c3C)cc2)cc1 (stereo not shown)
2. COC(=O)NCCCC(C)(Cc1ccccc1)C(=O)Oc1ccc(Oc2ccc(CN(Cc3ccccc3)c3cccc(NS(C)(=O)=O)c3C)cc2)cc1 (stereo not shown)
3. COC(=O)NCCCC(Cc1cn(Cc2ccccc2)nn1)C(=O)Oc1ccc(Oc2ccc(CN(Cc3ccccc3)c3cccc(NS(C)(=O)=O)c3C)cc2)cc1 (stereo not shown)
4. COC(=O)NCCCC(Cc1ccccc1)C(=O)Oc1ccc(Oc2ccc(CN(Cc3ccccc3)c3cccc(NS(C)(=O)=O)c3C)cc2)cc1 (stereo not shown)

(A)
1: 3.41; 2: 1.63; 3: 2.68; 4: 2.15
